Listed compounds paired with reported % Suppression
test system: P. falciparum (Pf3D7); assay: Parasitemia and suppression of Pf3D7 culture after 72 h of treatment; format: cell-based, Plasmodium falciparum; details: 12.5 μg mL^−1, 72 h
Enter your answer as a number in %; do not include the unit.

Solved cases (4 shown):
Compound: C/C(=N/NC(=O)c1cn(-c2ccccc2)nc1-c1ccccc1)c1c(O)cc(C)oc1=O
% Suppression, %: 26.19
--
Compound: C/C(=N/NC(=O)c1cn(-c2ccccc2)nc1-c1ccc(F)cc1)c1c(O)cc(C)oc1=O
% Suppression, %: 6.67
--
Compound: C/C(=N/NC(=O)c1cn(-c2ccccc2)nc1-c1ccc(Cl)cc1)c1c(O)cc(C)oc1=O
% Suppression, %: 31.62
--
Compound: C/C(=N/NC(=O)c1cn(-c2ccccc2)nc1-c1ccc(Br)cc1)c1c(O)cc(C)oc1=O
% Suppression, %: 47.10

[ask] Using the record for C/C(=N/NC(=O)c1cn(-c2ccccc2)nc1-c1ccc(C)cc1)c1c(O)cc(C)oc1=O , report its % Suppression.
[reply] 57.81

[ask] Using the record for CCN(CC)CCCC(C)Nc1ccnc2cc(Cl)ccc12 (stereo not drawn) [CQ, Chloroquine, reference compound] , report its % Suppression.
[reply] 99.05
